Data provenance: patent US20160304547A1

Each entry below lists one item and its recorded responders at 5 mg/kg value.
- Tested on: Streptococcus pneumoniae CMCC 31203
- experimentSummary: In vivo antibacterial test, survival of infected BALB/c mice
- runParameters: CMCC31203, sc, 168 h; BALB/c mice infected i.p. with Streptococcus pneumoniae; 5 mg per kg s.c. via neck for 3 consecutive days; deaths recorded until the seventh day; read-out: Animal survival rate
Answer by giving the amount and then stating its unit.

Some solved entries appear below for comparison.
[[record]]
compound = "CC[C@@H]1OC(=O)[C@H](C)[C@H](OC2C[C@@](C)(OC)[C@](O)(CNCCOC)[C@H](C)O2)[C@@H](C)[C@@H](O[C@@H]2O[C@H](C)C[C@H](N(C)C)[C@H]2O)[C@](C)(O)C[C@@H](C)NC[C@@H](C)[C@H](O)[C@]1(C)O (some centres unmarked)"
measuredattribute = "responders at 5 mg/kg"
resultvalue = "80%"

[[record]]
compound = "CC[C@@H]1OC(=O)[C@H](C)[C@H](OC2C[C@@](C)(OC)[C@](O)(CNCc3cnc(C)cn3)[C@H](C)O2)[C@@H](C)[C@@H](O[C@@H]2O[C@H](C)C[C@H](N(C)C)[C@H]2O)[C@](C)(O)C[C@@H](C)NC[C@@H](C)[C@H](O)[C@]1(C)O (some centres unmarked)"
measuredattribute = "responders at 5 mg/kg"
resultvalue = "90%"

[[record]]
compound = "CC[C@@H]1OC(=O)[C@H](C)[C@H](OC2C[C@@](C)(OC)[C@](O)(CNC(C)(C)C)[C@H](C)O2)[C@@H](C)[C@@H](O[C@@H]2O[C@H](C)C[C@H](N(C)C)[C@H]2O)[C@](C)(O)C[C@@H](C)NC[C@@H](C)[C@H](O)[C@]1(C)O (some centres unmarked)"
measuredattribute = "responders at 5 mg/kg"
resultvalue = "70%"

[[record]]
compound = "CC[C@@H]1OC(=O)[C@H](C)[C@H](OC2C[C@@](C)(OC)[C@](O)(CNC3CCCC3)[C@H](C)O2)[C@@H](C)[C@@H](O[C@@H]2O[C@H](C)C[C@H](N(C)C)[C@H]2O)[C@](C)(O)C[C@@H](C)NC[C@@H](C)[C@H](O)[C@]1(C)O (some centres unmarked)"
measuredattribute = "responders at 5 mg/kg"
resultvalue = "80%"

[[record]]
compound = "CCNC[C@]1(O)[C@H](C)OC(O[C@@H]2[C@@H](C)[C@@H](O[C@@H]3O[C@H](C)C[C@H](N(C)C)[C@H]3O)[C@](C)(O)C[C@@H](C)NC[C@@H](C)[C@H](O)[C@](C)(O)[C@H](CC)OC(=O)[C@@H]2C)C[C@@]1(C)OC (some centres unmarked)"
measuredattribute = "responders at 5 mg/kg"
resultvalue = "90%"


Can you look up the measured responders at 5 mg/kg of CCCCNC[C@]1(O)[C@H](C)OC(O[C@@H]2[C@@H](C)[C@@H](O[C@@H]3O[C@H](C)C[C@H](N(C)C)[C@H]3O)[C@](C)(O)C[C@@H](C)NC[C@@H](C)[C@H](O)[C@](C)(O)[C@H](CC)OC(=O)[C@@H]2C)C[C@@]1(C)OC (some centres unmarked) for me? 80%

Now give it for CC[C@@H]1OC(=O)[C@H](C)[C@H](OC2C[C@@](C)(OC)[C@](O)(CNC3CC3)[C@H](C)O2)[C@@H](C)[C@@H](O[C@@H]2O[C@H](C)C[C@H](N(C)C)[C@H]2O)[C@](C)(O)C[C@@H](C)NC[C@@H](C)[C@H](O)[C@]1(C)O (some centres unmarked) too. 80%

Now give it for CCCN1C[C@@H](C)[C@@H](O)[C@](C)(O)[C@H](CC)OC(=O)[C@H](C)[C@H](OC2C[C@@](C)(OC)[C@](O)(CN(C)CC)[C@H](C)O2)[C@H](C)[C@@H](O[C@@H]2O[C@H](C)C[C@H](N(C)C)[C@H]2O)[C@](C)(O)C[C@H]1C (some centres unmarked) too. 90%
